experiment: Metabolic stability in mouse liver microsomes (MLM); type: in vitro ADME; settings: 1 μM compound, 0.5 mg/mL MLM, 1 mM NADPH, 37° C., read-out: half-life (t1/2) towards MLM
TEST READOUT: half-life at 1 μM

[[record]]
compound = "Nc1cc(OCc2nc3cc(Oc4ccccc4)ccc3[nH]2)nc(C(F)(F)F)n1 [Compound 181]"
test_readout = "half-life at 1 μM"
observed_value = "> 1 h"

[[record]]
compound = "FC(F)(F)c1cc(NCc2cn(-c3ccc(-n4ccc5ccccc54)cc3)nn2)ccn1 [Compound 040]"
test_readout = "half-life at 1 μM"
observed_value = "0.517 to 1 h"

[[record]]
compound = "FC(F)(F)c1cc(NCc2cn(-c3ccc(Oc4cccc(Cl)c4)cc3)nn2)ccn1 [Compound 030]"
test_readout = "half-life at 1 μM"
observed_value = "> 1 h"

[[record]]
compound = "Fc1ccc(Oc2ccc(-c3nc(CNc4ccnc(C(F)(F)F)c4)cs3)cc2)cc1 [Compound 088]"
test_readout = "half-life at 1 μM"
observed_value = "> 1 h"

[[record]]
compound = "N#Cc1cc(NCc2cnc(-c3ccc(Oc4ccccc4)cc3)s2)ccn1 [Compound 076]"
test_readout = "half-life at 1 μM"
observed_value = "> 1 h"

[[record]]
compound = "O=C(c1ccccc1)c1ccc(-n2cc(CNc3ccnc(C(F)(F)F)c3)nn2)cc1 [Compound 004]"
test_readout = "half-life at 1 μM"
observed_value = "> 1 h"

[[record]]
compound = "CC(C)Oc1ncc(-c2ncc(CNc3ccnc(C(F)(F)F)c3)cn2)cc1Cl [Compound 164]"
test_readout = "half-life at 1 μM"
observed_value = "> 1 h"

[[record]]
compound = "Clc1cc(NCc2cn(-c3ccc(Oc4ccccc4)cc3)nn2)cc(Cl)n1 [Compound 048]"
test_readout = "half-life at 1 μM"
observed_value = "0.517 to 1 h"


These data points were gathered from patent US11883387B2.
